target: recombinant autotaxin (Homo sapiens, UniProt Q13822); construct: made in house; host or cells: Hi5 insect cells (baculovirus); experiment: Autotaxin test (enzyme test), Amplex Red fluorescence with LPC substrate; type: biochemical; settings: 10 μM compound; autotaxin inhibition (enzyme test); read-out: % Control at 10 μM
This section presents compounds with their documented remaining activity at 10 µM values.

{"compound": "O=C1Nc2ccc(-c3ccco3)cc2C(=O)N2CCN(C(=O)C3CC3)C[C@H]12", "remaining activity at 10 µM": "82%"}
{"compound": "CN(C)c1ccc(C(=O)N2CCN3C(=O)c4cc(-c5ccccc5F)ccc4NC(=O)[C@H]3C2)cc1", "remaining activity at 10 µM": "83%"}
{"compound": "COc1ccc(-c2ccc3c(c2)C(=O)N2CCN(C(=O)[C@@H]4CSCN4)C[C@@H]2C(=O)N3)cc1", "remaining activity at 10 µM": "71%"}
{"compound": "CC(C)(C)CC(=O)N1CCN2C(=O)c3cc(-c4ccc(C(F)(F)F)cc4)ccc3NC(=O)C2C1 (stereo not shown)", "remaining activity at 10 µM": "70%"}

###

Quick reference: remaining activity at 10 µM of the listed items.
Biological target: recombinant autotaxin (Homo sapiens)
Construct: made in house; host or cells: Hi5 insect cells (baculovirus)
Test: Autotaxin test (enzyme test), Amplex Red fluorescence with LPC substrate
Assay type: biochemical
Conditions: 10 μM compound; autotaxin inhibition (enzyme test); read-out: % Control at 10 μM
Procedure: Autotaxin Inhibition (Enzyme Test) Autotaxin Test (Enzyme Test) The autotaxin activity is measured indirectly using Amplex Red reagent. Amplex Red is measured here as fluorogenic indicator for the H2O2 formed. […] The fluorescence is measured in a reaction-dependent kinetic mode in order that fluorescent signals from possible other fluorescent substances which are not involved in the reaction can be corrected out. […]

{"compound": "CS(=O)(=O)CC(=O)N1CCN2C(=O)c3cc(-c4ccc(Cl)cc4)ccc3NC(=O)C2C1 (stereo not shown) [Compound A22]", "remaining activity at 10 µM (%)": 61}
{"compound": "CC1(C)SCNC1C(=O)N1CCN2C(=O)c3cc(-c4ccc(Cl)cc4)ccc3NC(=O)C2C1 (stereo not shown) [Compound A141]", "remaining activity at 10 µM (%)": -21}
{"compound": "O=C1Nc2ccc(-c3ccc(Cl)cc3)cc2C(=O)N2CCN(C(=O)Oc3ccccc3)CC12 (stereo not shown) [Compound A167]", "remaining activity at 10 µM (%)": 26}
{"compound": "CC(C)(C)CC(=O)N1CCN2C(=O)c3cc(-c4ccc(Cl)cc4F)ccc3N(CCO)C(=O)[C@H]2C1 [Compound A152]", "remaining activity at 10 µM (%)": 3}
{"compound": "CC(C)[C@H](N)C(=O)N1CCN2C(=O)c3cc(-c4ccc(Cl)cc4F)ccc3NC(=O)[C@H]2C1 [Compound A63]", "remaining activity at 10 µM (%)": 67}
{"compound": "O=C1Nc2ccc(-c3ccc(Cl)cc3)cc2C(=O)N2CCN(C(=O)C3(c4ccccc4)CCCC3)CC12 (stereo not shown) [Compound A106]", "remaining activity at 10 µM (%)": -37}
{"compound": "CC(C)(C)CC(=O)N1CCN2C(=O)c3cc(-c4cc(Cl)ccc4F)ccc3NC(=O)C2C1 (stereo not shown) [Compound A85]", "remaining activity at 10 µM (%)": 13}

###

target: recombinant autotaxin (Homo sapiens, UniProt Q13822); assay: Autotaxin test (enzyme test), Amplex Red fluorescence with LPC substrate; conditions: autotaxin inhibition (enzyme test)
Parameter IC50: see the listing below.

{"compound": "O=C1Nc2ccc(-c3ccc(Cl)cc3)cc2C(=O)N2CCN(C(=O)Nc3ccccc3)CC12 (stereo not shown)", "IC50": "> 1000 nM"}
{"compound": "Cc1ccc(-c2ccc3c(c2)C(=O)N2CCN(C(=O)CC(C)(C)C)CC2C(=O)N3)c(F)c1F (stereo not shown)", "IC50": "100 to 1000 nM"}
{"compound": "Cc1ccc(-c2ccc3c(c2)C(=O)N2CCN(C(=O)CC(C)(C)C)CC2C(=O)N3)cc1C (stereo not shown)", "IC50": "> 1000 nM"}
{"compound": "Cn1cc(CCC(=O)N2CCN3C(=O)c4cc(-c5ccc(Cl)cc5F)ccc4NC(=O)[C@H]3C2)cn1", "IC50": "100 to 1000 nM"}
{"compound": "O=C1Nc2ccc(-c3ccccc3F)cc2C(=O)N2CCN(C(=O)[C@@H]3CSCN3)C[C@H]12", "IC50": "> 1000 nM"}
{"compound": "O=C1Nc2ccc(-c3ccc(Cl)cc3)cc2C(=O)N2CCN(C(=O)c3csc(-c4cccnc4)n3)CC12 (stereo not shown)", "IC50": "> 1000 nM"}
{"compound": "CN1CCC(N2CCC[C@H]2C(=O)N2CCN3C(=O)c4cc(-c5ccc(Cl)cc5F)ccc4NC(=O)[C@H]3C2)CC1", "IC50": "100 to 1000 nM"}

###

target: recombinant autotaxin (Homo sapiens, UniProt Q13822); construct: made in house; host or cells: Hi5 insect cells (baculovirus); assay: Autotaxin test (enzyme test), Amplex Red fluorescence with LPC substrate; assay type: biochemical; details: 10 μM compound; autotaxin inhibition (enzyme test); read-out: % Control at 10 μM

{"compound": "CN1CCC(N2CCC[C@H]2C(=O)N2CCN3C(=O)c4cc(-c5ccc(Cl)cc5F)ccc4NC(=O)[C@H]3C2)CC1", "remaining activity at 10 µM / %": 8}
{"compound": "O=C1Nc2ccc(-c3ccc(Cl)cc3)cc2C(=O)N2CCN(C(=O)OCc3ccccc3)CC12 (stereo not shown)", "remaining activity at 10 µM / %": 22}
{"compound": "Cn1cc(CCC(=O)N2CCN3C(=O)c4cc(-c5ccc(Cl)cc5F)ccc4NC(=O)C3C2)cn1 (stereo not shown)", "remaining activity at 10 µM / %": 15}
{"compound": "O=C1Nc2ccc(-c3ccc(Cl)cc3)cc2C(=O)N2CCN(C(=O)C(F)(F)F)CC12 (stereo not shown)", "remaining activity at 10 µM / %": 63}
{"compound": "COc1ccc(-c2ccc3c(c2)C(=O)N2CCN(C(=O)[C@@H](O)c4ccccc4)C[C@@H]2C(=O)N3)cc1", "remaining activity at 10 µM / %": 84}
{"compound": "O=C1Nc2ccc(-c3ccc(Cl)cc3F)cc2C(=O)N2CCN(C(=O)[C@H]3CCCN3C3CCNCC3)CC12 (stereo partly shown)", "remaining activity at 10 µM / %": 17}
{"compound": "CC(C)(C)CC(=O)N1CCN2C(=O)c3cc(-c4ccc(C#N)cc4)ccc3NC(=O)C2C1 (stereo not shown)", "remaining activity at 10 µM / %": 84}

###

Reported pIC50 by item:
biological target: recombinant autotaxin (Homo sapiens); experiment: Autotaxin test (enzyme test), Amplex Red fluorescence with LPC substrate; details: autotaxin inhibition (enzyme test)
pIC50: −log10 of the molar value.
property: pIC50

{"molecule": "CN(C)CCN1C(=O)[C@@H]2CN(C(=O)CC(C)(C)C)CCN2C(=O)c2cc(-c3ccc(Cl)cc3F)ccc21", "testedSystem": "recombinant autotaxin (Homo sapiens)", "observedResult": "< 6.00"}
{"molecule": "O=C1Nc2ccc(-c3ccc(Cl)cc3F)cc2C(=O)N2CCN(C(=O)n3ccnc3)C[C@H]12", "testedSystem": "recombinant autotaxin (Homo sapiens)", "observedResult": "< 6.00"}
{"molecule": "CC(C)(C(=O)N1CCN2C(=O)c3cc(-c4ccc(Cl)cc4F)ccc3NC(=O)C2C1)c1ccccc1 (stereo not drawn)", "testedSystem": "recombinant autotaxin (Homo sapiens)", "observedResult": "< 6.00"}
{"molecule": "O=C1Nc2ccc(-c3ccc(Cl)cc3)cc2C(=O)N2CCN(C(=O)C(O)c3ccc(Cl)cc3)CC12 (stereo not drawn)", "testedSystem": "recombinant autotaxin (Homo sapiens)", "observedResult": "< 6.00"}
{"molecule": "CC(C)(C)CC(=O)N1CCN2C(=O)c3cc(-c4ccc(Cl)nc4)ccc3NC(=O)C2C1 (stereo not drawn)", "testedSystem": "recombinant autotaxin (Homo sapiens)", "observedResult": "< 6.00"}
{"molecule": "O=C1Nc2ccc(-c3ccc(Cl)cc3)cc2C(=O)N2CCN(C(=O)C(O)c3ccccc3Cl)CC12 (stereo not drawn)", "testedSystem": "recombinant autotaxin (Homo sapiens)", "observedResult": "< 6.00"}
{"molecule": "O=C1Nc2ccc(-c3ccc(Cl)cc3)cc2C(=O)N2CCN(C(=O)[C@@H](O)c3ccccc3)C[C@H]12", "testedSystem": "recombinant autotaxin (Homo sapiens)", "observedResult": "< 6.00"}
{"molecule": "O=C1Nc2ccc(-c3ccc(Cl)cc3)cc2C(=O)N2CCN(C(=O)[C@H](O)c3ccccc3)CC12 (stereo partly drawn)", "testedSystem": "recombinant autotaxin (Homo sapiens)", "observedResult": "< 6.00"}
{"molecule": "CC(C)(C)[C@H](O)C(=O)N1CCN2C(=O)c3cc(-c4ccc(Cl)cc4F)ccc3NC(=O)C2C1 (stereo partly drawn)", "testedSystem": "recombinant autotaxin (Homo sapiens)", "observedResult": "6.00 to 7.00"}
{"molecule": "CC(C)CS(=O)(=O)N1CCN2C(=O)c3cc(-c4ccc(Cl)cc4F)ccc3NC(=O)[C@H]2C1", "testedSystem": "recombinant autotaxin (Homo sapiens)", "observedResult": "6.00 to 7.00"}
{"molecule": "CC(C)(C)CC(=O)N1CCN2C(=O)c3cc(-c4ccccc4)ccc3NC(=O)C2C1 (stereo not drawn)", "testedSystem": "recombinant autotaxin (Homo sapiens)", "observedResult": "< 6.00"}
{"molecule": "CC1(C)SCNC1C(=O)N1CCN2C(=O)c3cc(-c4ccc(Cl)cc4)ccc3NC(=O)C2C1 (stereo not drawn)", "testedSystem": "recombinant autotaxin (Homo sapiens)", "observedResult": "6.00 to 7.00"}
{"molecule": "CC(C)(C)CC(=O)N1CCN2C(=O)c3cc(-c4cc(F)c(Cl)c(F)c4)ccc3NC(=O)C2C1 (stereo not drawn)", "testedSystem": "recombinant autotaxin (Homo sapiens)", "observedResult": "6.00 to 7.00"}
{"molecule": "CC(O)(C(=O)N1CCN2C(=O)c3cc(-c4ccc(Cl)cc4)ccc3NC(=O)C2C1)c1ccccc1 (stereo not drawn)", "testedSystem": "recombinant autotaxin (Homo sapiens)", "observedResult": "< 6.00"}
{"molecule": "C#Cc1ccc(-c2ccc3c(c2)C(=O)N2CCN(C(=O)CC(C)(C)C)CC2C(=O)N3)cc1 (stereo not drawn)", "testedSystem": "recombinant autotaxin (Homo sapiens)", "observedResult": "< 6.00"}
